assay: Enhancement of acetaminophen toxicity by BHT and protection by methionine sulfoxide in hamsters; assay type: in vivo, hamster; details: hamster, in vivo, ip; i.p. mixture of 300 mg/kg acetaminophen and 600 mg/kg BHT; within 24 hours; read-out: deaths
property: mortality at 24 h

Quick note, mortality at 24 h for Cc1cc(C(C)(C)C)c(O)c(C(C)(C)C)c1 [BHT, butylated hydroxytoluene] landed at 100%

Origin of measurements: patent US4314989A
